- target-or-test-system: human CD33 P132L (human, UniProt P20138 18-364)
- Sequence (P20138 18-364 P132L limits assumed): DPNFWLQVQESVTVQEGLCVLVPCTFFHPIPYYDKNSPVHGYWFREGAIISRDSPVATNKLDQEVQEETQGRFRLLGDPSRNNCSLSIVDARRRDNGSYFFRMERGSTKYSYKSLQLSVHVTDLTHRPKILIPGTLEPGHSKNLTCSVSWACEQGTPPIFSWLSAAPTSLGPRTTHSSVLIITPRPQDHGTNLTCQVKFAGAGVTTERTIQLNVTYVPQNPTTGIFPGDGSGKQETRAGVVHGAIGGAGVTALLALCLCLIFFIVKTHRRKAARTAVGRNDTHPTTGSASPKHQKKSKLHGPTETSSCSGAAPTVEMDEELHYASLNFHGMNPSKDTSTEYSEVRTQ
- protocol-text: flow cytometry, HEK293-T, IgG;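 note: CD33 point mutants transiently expressed, antibody binding measured by fluorescence in duplicate, background subtracted and scaled to binding on wild-type CD33 as 100%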
value-kind: Mean % WT Binding (% WT binding)
Unit % WT binding implied. Number only.

Answered cases to consult:
binder | Mean % WT Binding, % WT binding
Refmab #1 (antibody, human IgG1, V domains shown, tested in IgG format; also called hP67.6) VH: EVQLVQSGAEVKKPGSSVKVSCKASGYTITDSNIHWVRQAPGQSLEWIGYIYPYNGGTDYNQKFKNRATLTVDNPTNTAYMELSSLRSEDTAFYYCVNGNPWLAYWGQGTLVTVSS VL: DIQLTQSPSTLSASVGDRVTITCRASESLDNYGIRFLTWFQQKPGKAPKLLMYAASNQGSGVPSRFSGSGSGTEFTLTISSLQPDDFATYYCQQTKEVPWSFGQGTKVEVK | 94.6
Refmab #2 (antibody, human IgG1, V domains shown, tested in IgG format) VH: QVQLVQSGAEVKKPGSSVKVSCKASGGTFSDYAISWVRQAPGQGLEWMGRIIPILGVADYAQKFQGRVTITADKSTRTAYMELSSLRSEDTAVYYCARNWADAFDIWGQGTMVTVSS VL: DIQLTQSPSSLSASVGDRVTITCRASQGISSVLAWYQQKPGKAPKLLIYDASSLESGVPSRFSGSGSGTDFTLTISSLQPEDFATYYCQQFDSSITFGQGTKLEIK | 116
Refmab #4 (antibody, human IgG1, V domains shown, tested in IgG format) VH: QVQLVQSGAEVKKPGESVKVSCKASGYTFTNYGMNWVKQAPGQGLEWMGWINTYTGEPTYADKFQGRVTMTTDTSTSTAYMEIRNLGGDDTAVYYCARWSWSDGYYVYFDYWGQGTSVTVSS VL: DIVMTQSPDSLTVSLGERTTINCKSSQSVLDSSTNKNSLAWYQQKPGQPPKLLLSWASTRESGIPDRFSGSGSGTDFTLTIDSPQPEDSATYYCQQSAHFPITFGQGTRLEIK | 96.7

Attention now shifts to the item below.
[in] State the recorded Mean % WT Binding for this entry: Refmab #3 (antibody, human IgG1, V domains shown, tested in IgG format) VH: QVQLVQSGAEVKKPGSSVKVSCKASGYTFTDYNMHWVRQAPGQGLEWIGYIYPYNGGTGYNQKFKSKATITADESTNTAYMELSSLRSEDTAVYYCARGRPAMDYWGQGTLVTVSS VL: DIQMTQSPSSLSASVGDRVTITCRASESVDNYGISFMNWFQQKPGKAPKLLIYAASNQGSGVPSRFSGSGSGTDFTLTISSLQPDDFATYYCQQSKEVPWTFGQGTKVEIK
[out] 94.4
